Data provenance: patent US4542219A

test: Hemolysis test (method of Gottfried et al); assay type: cell-based; conditions: erythrocytes; in the presence of 5% human albumin; read-out: 50% hemolytic concentration
Reported property: HC50

For CCCCCCCCCCCCCOCCOP(=O)([O-])OCC[N+](C)(C)C , write its HC50.
~80 µg/mL

----------
tested on: human promyelocytic leukemia cell HL-60; assay: Cell proliferation inhibition and differentiation induction, human promyelocytic leukemia cell HL-60 (Test Example 1): proliferation; format: cell-based; details: HL-60, 120 h, 5 days' culture, read-out: Cell proliferation inhibitory activity GD50
IC50 strictly less than 3 µg/mL = y. Otherwise n.

Could you please tell me whether IC50 recorded for CCCCCCCCCCCCCCOCCOP(=O)([O-])OCC[N+](C)(C)CCCC(=O)O is less than 3 µg/mL?
y

Could you please tell me whether IC50 recorded for CCCCCCCCCCCCCCCOCCOP(=O)([O-])OCC[N+](C)(C)C is less than 3 µg/mL?
y

Could you please tell me whether IC50 recorded for CCCCCCCCCCCCCCOCCOP(=O)([O-])OCC[N+](C)(C)CCCC(=O)OC is less than 3 µg/mL?
y

Could you please tell me whether IC50 recorded for CCCCCCCCCCCCCCOCCOP(=O)([O-])OCC[n+]1ccccc1 is less than 3 µg/mL?
n

Could you please tell me whether IC50 recorded for CCCCCCCCCCCCCCCOCCOP(=O)([O-])OCC[n+]1ccccc1 is less than 3 µg/mL?
n

Could you please tell me whether IC50 recorded for CCCCCCCCCCCCCCCCCCOCCOP(=O)([O-])OCC[n+]1ccccc1 is less than 3 µg/mL?
y

Could you please tell me whether IC50 recorded for CCCCCCCCCCCCCCOCCOP(=O)([O-])OCC[N+](C)(C)C is less than 3 µg/mL?
n
